# Tested on: M14
# run-description: NCI tumour cell line growth inhibition, 48 h
Active and inactive are the calls of the source. Rule as the data show it: active = GI50 up to about 1.1 µM and inactive = higher.
Give measured GI50 for each item. Keep answers brief.

Reported GI50 of [O-][S+](Nc1ccccc1)c1ccc(Cl)cc1 (centres undefined) : > 100 µM (inactive)

Reported GI50 of COCC12CCC(OC)C34C5CC6(O)C(OC)CC(OC(C)=O)(C5C6OC(=O)c5ccccc5)C(C(OC)C13)C4N(C)C2 (centres undefined) : > 100 µM (inactive)

Reported GI50 of "CCOS(C)(=O)=O" : > 100 µM (inactive)

Reported GI50 of "CCCC(c1cc(C(C)(C)C)c(O)cc1C)c1cc(C(C)(C)C)c(O)cc1C" : 2.09 µM (inactive)

Reported GI50 of "CC(C)(C)C1CCC2(CC1)CCN(CCCN1CCOCC1)CC2" : 12.2 µM (inactive)

Reported GI50 of CC(O)C(NC(=O)C(CS)NC(=O)C(CO)NC(=O)C(CCCCN)NC(=O)C(Cc1c[nH]c2ccccc12)NC(=O)C(Cc1ccc(O)cc1)NC(=O)C(CS)NC(=O)C(N)Cc1ccccc1)C(N)=O (centres undefined) : > 25 µM (inactive)

Reported GI50 of "COc1ccc(/C=c2\sc3nnc(CCC(=O)Nc4cccc(C(F)(F)F)c4)n3c2=O)cc1" : > 100 µM (inactive)

Reported GI50 of "c1ccc2c(c1)CCc1c(-c3n[nH]c4c3CCc3ccccc3-4)n[nH]c1-2" : > 100 µM (inactive)

Reported GI50 of CCCC(C)NC(=O)c1ccc(N(C)Cc2cnc3nc(N)nc(N)c3n2)cc1 (centres undefined) : 11.5 µM (inactive)
